- ASSAY_METHOD_TEXT: Volume of distribution at steady state in mouse at 1 mg/kg, iv and 10 mg/kg, po
- Assay type: ADME, organism-based
- CONDITION_PARAMETERS: in vivo, read-out: Vdss
MEASURED_QUANTITY: Vd

Record excerpt, results attached:
The reported Vd of the molecule CS(=O)(=O)c1ccc(N2CCC(C3CCN(c4ccc(Cl)cn4)CC3)CC2)cc1 was 2.3 L/kg

The reported Vd of the molecule CC(C)(C)OC(=O)N1CCC(C2CCN(c3ccc(S(C)(=O)=O)cc3)CC2)CC1 was 6.9 L/kg

Lab note: next molecule to report on.
The reported Vd of the molecule CS(=O)(=O)c1ccc(OCC[C@@H]2C[C@@H]2C2CCN(c3ncc(Cl)cn3)CC2)nc1 was 2.1 L/kg

----------
- TARGET_SYSTEM: Glucose-dependent insulinotropic receptor (Homo sapiens)
- Sequence (Q8TDV5 whole entry): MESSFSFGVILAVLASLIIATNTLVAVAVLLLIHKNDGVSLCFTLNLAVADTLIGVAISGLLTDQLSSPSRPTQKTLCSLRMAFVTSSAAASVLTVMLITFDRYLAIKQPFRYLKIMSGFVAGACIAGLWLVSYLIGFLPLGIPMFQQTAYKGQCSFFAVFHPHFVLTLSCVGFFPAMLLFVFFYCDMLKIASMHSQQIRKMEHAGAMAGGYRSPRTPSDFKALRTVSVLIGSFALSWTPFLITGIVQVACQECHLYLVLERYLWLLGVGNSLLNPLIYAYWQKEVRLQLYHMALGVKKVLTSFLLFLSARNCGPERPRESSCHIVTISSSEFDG
- ASSAY_METHOD_TEXT: Agonist activity at human GPR119 expressed in CHO cells co-expressing Galpha15 assessed as increase of intracellular cAMP accumulation after 60 mins by HTRF assay
Consider the cut-off 30 nM. If the recorded EC50 is strictly smaller, the label is met; if not, the label is not met.

Report whether reported EC50 is lower than 30 nM (strictly) for Cc1cccc(N2CCC(C3CCN(C(=O)OC(C)(C)C)CC3)CC2)c1 not met

Report whether reported EC50 is lower than 30 nM (strictly) for CC(C)(C)OC(=O)N1CCC(C2CCN(c3ccccc3)CC2)CC1 not met

Report whether reported EC50 is lower than 30 nM (strictly) for Cc1cnc(N2CCC([C@H]3C[C@H]3CCOc3nc(C)cc(C#N)n3)CC2)nc1 met

Report whether reported EC50 is lower than 30 nM (strictly) for CC(C)(C)OC(=O)N1CCC(C2CCN(c3cc(C#N)ncn3)CC2)CC1 met

----------
- ASSAY_METHOD_TEXT: Solubility of compound in PEG400 after 3 to 7 days
- Assay type: physicochemical
MEASURED_QUANTITY: solubility (µg/mL)
Give just the number in µg/mL; leave the unit off.

The reported solubility of the compound Cc1cnc(N2CCC([C@H]3C[C@H]3CCOc3nc(C)cc(C#N)n3)CC2)nc1 was 24800

Next:
The reported solubility of the compound Clc1cnc(N2CCC([C@H]3C[C@H]3CCOc3ccc(-n4ccnn4)cn3)CC2)nc1 was 11400

The reported solubility of the compound CS(=O)(=O)c1ccc(OCC[C@@H]2C[C@@H]2C2CCN(c3ncc(Cl)cn3)CC2)nc1 was 7100

The reported solubility of the compound Clc1cnc(N2CCC([C@H]3C[C@H]3CCOc3ccc(-n4ccnn4)cc3)CC2)nc1 was 5000

----------
- TARGET_SYSTEM: Glucose-dependent insulinotropic receptor (Mus musculus)
- ASSAY_METHOD_TEXT: Agonist activity at mouse GPR119 expressed in CHO cells co-expressing Galpha15 assessed as increase of intracellular cAMP accumulation after 60 mins by HTRF assay
- Type: functional, cell-based
Some compounds, each annotated with its measured pEC50.
# pEC50 = -log10(concentration in molar units)

Record excerpt, results attached:
The reported pEC50 of the compound CC(=O)c1ccc(N2CCC(C3CCN(C(=O)OC(C)(C)C)CC3)CC2)cc1 was 6.47

The reported pEC50 of the compound O=C(NC1CC1)c1ccc(OCCCC2CC2CCCC2CCN(c3ncc(Cl)cn3)CC2)cc1F (racemic) was 9.10

The reported pEC50 of the compound O=C(NC1CC1)c1ccc(OCCC2CC2C2CCN(c3ncc(Cl)cn3)CC2)cc1F (single isomer, unassigned; (-)) was 8.70

Next:
The reported pEC50 of the compound CS(=O)(=O)c1ccc(N2CCC(C3CCN(c4ccccn4)CC3)CC2)cc1 was 6.17

The reported pEC50 of the compound O=C(NC1CC1)c1ccc(OCC2CC2C2CCN(c3ncc(Cl)cn3)CC2)cc1F (racemic; 52) was 7.64

----------
- TARGET_SYSTEM: Voltage-gated inwardly rectifying potassium channel KCNH2 (Homo sapiens, UniProt Q12809)
- Sequence (Q12809 whole entry): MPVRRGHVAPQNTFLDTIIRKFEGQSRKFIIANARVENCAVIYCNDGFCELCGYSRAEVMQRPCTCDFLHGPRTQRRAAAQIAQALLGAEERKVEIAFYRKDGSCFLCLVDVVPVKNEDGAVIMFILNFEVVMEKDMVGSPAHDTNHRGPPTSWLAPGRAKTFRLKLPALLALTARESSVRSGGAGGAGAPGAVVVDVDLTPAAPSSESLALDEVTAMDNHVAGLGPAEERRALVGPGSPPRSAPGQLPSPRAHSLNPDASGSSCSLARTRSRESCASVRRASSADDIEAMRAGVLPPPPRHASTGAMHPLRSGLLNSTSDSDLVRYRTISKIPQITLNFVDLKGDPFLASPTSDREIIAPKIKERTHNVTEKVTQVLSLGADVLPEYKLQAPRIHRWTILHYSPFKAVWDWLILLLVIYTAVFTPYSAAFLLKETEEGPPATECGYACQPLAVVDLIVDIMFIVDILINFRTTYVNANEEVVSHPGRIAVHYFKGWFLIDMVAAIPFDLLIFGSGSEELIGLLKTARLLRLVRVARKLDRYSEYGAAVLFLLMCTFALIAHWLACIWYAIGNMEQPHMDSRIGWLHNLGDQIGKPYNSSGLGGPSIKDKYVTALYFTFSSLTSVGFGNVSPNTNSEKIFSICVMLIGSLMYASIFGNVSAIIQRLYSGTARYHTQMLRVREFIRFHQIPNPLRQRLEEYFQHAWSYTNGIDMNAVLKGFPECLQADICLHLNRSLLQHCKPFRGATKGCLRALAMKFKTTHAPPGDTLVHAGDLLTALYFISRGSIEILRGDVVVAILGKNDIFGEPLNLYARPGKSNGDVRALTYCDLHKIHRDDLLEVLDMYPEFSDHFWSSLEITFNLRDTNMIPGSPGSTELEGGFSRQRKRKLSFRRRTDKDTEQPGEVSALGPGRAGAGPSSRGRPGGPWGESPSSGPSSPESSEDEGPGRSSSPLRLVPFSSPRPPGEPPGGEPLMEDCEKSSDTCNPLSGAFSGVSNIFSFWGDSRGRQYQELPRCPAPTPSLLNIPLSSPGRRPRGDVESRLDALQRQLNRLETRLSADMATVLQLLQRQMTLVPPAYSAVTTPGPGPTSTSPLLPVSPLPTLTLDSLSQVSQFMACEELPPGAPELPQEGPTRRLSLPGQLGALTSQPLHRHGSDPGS
- ASSAY_METHOD_TEXT: Inhibition of human ERG
Some compounds, each annotated with its measured IC50.

Record excerpt, results attached:
The reported IC50 of the compound Cc1cnc(N2CCC(C3CCN(c4cc(C#N)nc(C)n4)CC3)CC2)nc1 was 1.8 µM

The reported IC50 of the compound O=C(NC1CC1)c1ccc(OCCC2CC2C2CCN(c3ncc(Cl)cn3)CC2)cc1F (single isomer, unassigned; (+)) was > 30 µM

Lab note: next compound to report on.
The reported IC50 of the compound O=C(NC1CC1)c1ccc(OCC2CC2CC2CCN(c3ncc(Cl)cn3)CC2)cc1F (racemic; 57) was > 30 µM

----------
Some molecules, each annotated with its measured EC50.
- TARGET_SYSTEM: UniProt:Q8TDV5
- ASSAY_METHOD_TEXT: Agonist activity at human GPR119 expressed in CHO cells co-expressing Galpha15 assessed as increase of intracellular cAMP accumulation after 60 mins by HTRF assay
Give just the number in nM; leave the unit off.

Record excerpt, results attached:
The reported EC50 of the molecule Clc1cnc(N2CCC([C@H]3C[C@H]3CCOc3ccc(-n4ccnn4)cn3)CC2)nc1 was 2

The reported EC50 of the molecule O=C(NC1CC1)c1ccc(OCC2CC2CC2CCN(c3ncc(Cl)cn3)CC2)cc1F (racemic; 56) was 18

The reported EC50 of the molecule CS(=O)(=O)c1ccc(N2CCC(C3CCN(c4ncc(Cl)cn4)CC3)CC2)cc1 was 5

Next:
The reported EC50 of the molecule CS(=O)(=O)c1ccc(N2CCC(C3CCN(c4ccc(Cl)cn4)CC3)CC2)cc1 was 48

The reported EC50 of the molecule C[S+]([O-])c1ccc(N2CCC(C3CCN(C(=O)OC(C)(C)C)CC3)CC2)cc1 (centres undefined) was 11

The reported EC50 of the molecule CC(C)(C)OC(=O)N1CCC(C2CCN(c3cnccn3)CC2)CC1 was 103

The reported EC50 of the molecule Cc1ccc(N2CCC(C3CCN(C(=O)OC(C)(C)C)CC3)CC2)cc1 was 338

The reported EC50 of the molecule CS(=O)(=O)c1ccc(OCC[C@@H]2C[C@@H]2C2CCN(c3ncc(Cl)cn3)CC2)nc1 was 4

The reported EC50 of the molecule Cc1cnc(N2CCC(C3CCN(c4ccc(S(C)(=O)=O)cc4)CC3)CC2)nc1 was 57

The reported EC50 of the molecule CSc1ccc(N2CCC(C3CCN(C(=O)OC(C)(C)C)CC3)CC2)cc1 was 600

The reported EC50 of the molecule O=C(NC1CC1)c1ccc(OCC2CC2CC2CCN(c3ncc(Cl)cn3)CC2)cc1F (racemic; 57) was 9

The reported EC50 of the molecule O=C(NC1CC1)c1ccc(OCCC2CC2C2CCN(c3ncc(Cl)cn3)CC2)cc1F (racemic) was 0.3

----------
- TARGET_SYSTEM: Glucose-dependent insulinotropic receptor (Mus musculus, UniProt Q7TQP3)
- Sequence (Q7TQP3 whole entry): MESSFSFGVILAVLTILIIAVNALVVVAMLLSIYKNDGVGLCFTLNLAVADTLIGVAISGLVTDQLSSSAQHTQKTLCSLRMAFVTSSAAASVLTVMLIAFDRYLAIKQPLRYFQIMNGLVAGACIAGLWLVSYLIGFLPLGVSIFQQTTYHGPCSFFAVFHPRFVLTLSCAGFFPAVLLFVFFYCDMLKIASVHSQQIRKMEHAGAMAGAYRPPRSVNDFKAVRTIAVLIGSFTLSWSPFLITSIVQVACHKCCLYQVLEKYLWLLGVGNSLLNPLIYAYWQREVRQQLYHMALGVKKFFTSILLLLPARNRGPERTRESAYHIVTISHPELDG
- ASSAY_METHOD_TEXT: Agonist activity at mouse GPR119 expressed in CHO cells co-expressing Galpha15 assessed as increase of intracellular cAMP accumulation after 60 mins by HTRF assay
Consider the cut-off 40 nM. If the recorded EC50 is strictly smaller, the label is met; if not, the label is not met.

Report whether reported EC50 is lower than 40 nM (strictly) for CC(C)(C)OC(=O)N1CCC(C2CCN(c3ccncn3)CC2)CC1 not met

Report whether reported EC50 is lower than 40 nM (strictly) for Cc1cnc(N2CCC(C3CCN(c4ccc(S(C)(=O)=O)cc4)CC3)CC2)nc1 not met

Report whether reported EC50 is lower than 40 nM (strictly) for Cc1nc(C#N)cc(N2CCC(C3CCN(C(=O)OC(C)(C)C)CC3)CC2)n1 met

Report whether reported EC50 is lower than 40 nM (strictly) for CC(C)(C)OC(=O)N1CCC(C2CCN(c3ccccn3)CC2)CC1 not met

Next:
Report whether reported EC50 is lower than 40 nM (strictly) for Cc1cc(N2CCC(C3CCN(c4ncc(Cl)cn4)CC3)CC2)nc(C#N)n1 met

Report whether reported EC50 is lower than 40 nM (strictly) for Cc1ccc(N2CCC(C3CCN(c4ccc(S(C)(=O)=O)cc4)CC3)CC2)nc1 not met

Report whether reported EC50 is lower than 40 nM (strictly) for Cc1ccc(N2CCC(C3CCN(C(=O)OC(C)(C)C)CC3)CC2)cc1 not met

Report whether reported EC50 is lower than 40 nM (strictly) for Cc1cnc(N2CCC([C@H]3C[C@H]3CCOc3nc(C)cc(C#N)n3)CC2)nc1 met

Report whether reported EC50 is lower than 40 nM (strictly) for CC(C)(C)OC(=O)N1CCC(C2CCN(c3ccnc(C#N)n3)CC2)CC1 met

----------
- TARGET_SYSTEM: Glucose-dependent insulinotropic receptor (Mus musculus, UniProt Q7TQP3)
- ASSAY_METHOD_TEXT: Agonist activity at mouse GPR119 expressed in CHO cells co-expressing Galpha15 assessed as increase of intracellular cAMP accumulation after 60 mins by HTRF assay
MEASURED_QUANTITY: EC50 (nM)
Give just the number in nM; leave the unit off.

Record excerpt, results attached:
The reported EC50 of the compound Cc1cnc(N2CCC(C3CCN(c4cc(C#N)nc(C)n4)CC3)CC2)cn1 was 82

The reported EC50 of the compound CC(C)(C)OC(=O)N1CCC(C2CCN(c3ccc(S(C)(=O)=O)cc3)CC2)CC1 was 36

The reported EC50 of the compound CS(=O)(=O)c1ccc(N2CCC(C3CCN(c4ccc(F)cn4)CC3)CC2)cc1 was 206

Lab note: next compound to report on.
The reported EC50 of the compound CS(=O)(=O)c1ccc(N2CCC(C3CCN(c4ncc(Cl)cn4)CC3)CC2)cc1 was 8
